test system: ATP; assay: switch fluorescence ratio, 500 uM ATP over buffer (Cy3 cluster intensity, sum of 5 cycles each) (fold (ratio)); higher = stronger signal-on switching upon ATP binding; sequences stand for … in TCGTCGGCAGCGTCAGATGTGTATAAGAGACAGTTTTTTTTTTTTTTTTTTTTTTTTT…TC; details: aptamer strand: ATP DNA aptamer (quencher-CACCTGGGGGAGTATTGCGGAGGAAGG + anchor), 100 nM annealed; ATP concentration: 500 uM;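 note: ATP exposure 15 min at 22 °C before imaging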
Measure: switch fluorescence ratio

1) TGCTGAGGGC
1.01
2) TTCTTAGGGA
0.986
3) ATTTTTTAAC
1.02
4) CTGTTGCCTG
0.974
5) TTGAGAGATT
1.01
6) TGTTGGGGAG
0.972
7) GAGTTACATG
1.02
8) AGACGATTGG
0.974
9) ATGATAGAGG
0.991
10) CTAGAATGAT
1.01
11) CGACGTGTGG
1.02
12) TACCTTTGGG
1.02
13) TGCTGGTATA
0.983
14) ATTCTAGTCG
1.02
15) CGCGTCTGGG
1.01
16) TTAAAAGAGC
1.02
17) AGTATATGGA
1.01
18) TTTTTTCTAT
0.996
19) TCCCGGGAAT
0.987
20) TTTATGGTAA
0.989
21) GTGCTTGTGT
1.01
22) TCATTCTAGG
1.01
23) AAAGGGGGAT
1
24) GAAGTAAGGA
1.01
25) TAAGGGCAGA
1.02
26) TGGAAAGGGG
1.01
27) GTATGGGCGG
0.991

* * *

Measured switch fluorescence ratio accompanies every entry in the list below.
system: ATP; experiment: switch fluorescence ratio, 500 uM ATP over buffer (Cy3 cluster intensity, sum of 5 cycles each) (fold (ratio)); higher = stronger signal-on switching upon ATP binding; sequences stand for … in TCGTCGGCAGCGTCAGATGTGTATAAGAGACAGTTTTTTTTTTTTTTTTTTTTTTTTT…TC; details: aptamer strand: ATP DNA aptamer (quencher-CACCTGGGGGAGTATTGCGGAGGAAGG + anchor), 100 nM annealed; ATP concentration: 500 uM;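 note: ATP exposure 15 min at 22 °C before imaging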
Measure: switch fluorescence ratio

1) ATTAGTACTG
1.02
2) CGTTCGGGGG
1.01
3) CCCAGGAGTT
1.94
4) GAGGATATGT
0.971
5) CGTGCCGATC
1.01
6) TTGGGTTCCC
1.01
7) GGGGTAAAGA
1.02
8) TAATAGGCCT
1.03
9) TTTGGGCCCG
0.994
10) CGCTTGAAAT
1.05
11) ACGGAGGCAT
1.31
12) TTATTAGTAG
1
13) ACTCTGGGC
1.17
14) TTTAAATAGC
0.974
15) GAAATTTTTT
1

* * *

Measured switch fluorescence ratio accompanies every entry in the list below.
system: ATP; assay: switch fluorescence ratio, 500 uM ATP over buffer (Cy3 cluster intensity, sum of 5 cycles each) (fold (ratio)); higher = stronger signal-on switching upon ATP binding; sequences stand for … in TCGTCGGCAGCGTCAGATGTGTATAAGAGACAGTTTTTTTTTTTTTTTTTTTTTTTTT…TC; conditions: aptamer strand: ATP DNA aptamer (quencher-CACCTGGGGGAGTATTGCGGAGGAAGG + anchor), 100 nM annealed; ATP concentration: 500 uM;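 note: ATP exposure 15 min at 22 °C before imaging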
Measure: switch fluorescence ratio

1. GTATGAAGGG
0.976
2. GCGTGGAGA
1
3. TTTATGATTT
1

* * *

tested on: ATP; assay: switch fluorescence ratio, 500 uM ATP over buffer (Cy3 cluster intensity, sum of 5 cycles each) (fold (ratio)); higher = stronger signal-on switching upon ATP binding; sequences stand for … in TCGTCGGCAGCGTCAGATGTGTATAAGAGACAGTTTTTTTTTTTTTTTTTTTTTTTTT…TC; details: aptamer strand: ATP DNA aptamer (quencher-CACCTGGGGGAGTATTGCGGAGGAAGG + anchor), 100 nM annealed; ATP concentration: 500 uM;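 note: ATP exposure 15 min at 22 °C before imaging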
Measure: switch fluorescence ratio

1) GAGAAAATTT
0.989
2) TCGGTGTTCA
1
3) AAGTGGGTTT
1.02

* * *

system: ATP; assay: switch fluorescence ratio, 500 uM ATP over buffer (Cy3 cluster intensity, sum of 5 cycles each) (fold (ratio)); higher = stronger signal-on switching upon ATP binding; sequences stand for … in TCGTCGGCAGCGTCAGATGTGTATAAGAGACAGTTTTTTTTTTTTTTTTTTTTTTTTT…TC; details: aptamer strand: ATP DNA aptamer (quencher-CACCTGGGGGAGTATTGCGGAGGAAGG + anchor), 100 nM annealed; ATP concentration: 500 uM;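 note: ATP exposure 15 min at 22 °C before imaging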
Measured switch fluorescence ratio accompanies every entry in the list below.
Measure: switch fluorescence ratio

1. ACACAATTTT
1.01
2. ACGATTTTTC
0.974
3. AACCTTTTGG
1.03
4. TCGTAAGGAA
1.01
5. AGAGTAGGGA
0.989
6. GACTAATGAT
1.02
7. TGTGGTTCGA
0.972
8. CAGGGGGGAT
1.04
9. GTGCGCAATT
2.02
10. GGCACTAAGT
1.04
11. TTTTATAGTG
0.984
12. GCGGGCGGCC
0.981
13. CGTCCTGAGG
1.04
14. GAAGGGCTGG
0.972
15. CTCGCTAGGA
1.05
16. CGAATAATCA
0.982
17. AGTTAATTGA
0.97
18. GAATCGTAGG
0.986

* * *

Measured switch fluorescence ratio accompanies every entry in the list below.
tested on: ATP; assay: switch fluorescence ratio, 500 uM ATP over buffer (Cy3 cluster intensity, sum of 5 cycles each) (fold (ratio)); higher = stronger signal-on switching upon ATP binding; sequences stand for … in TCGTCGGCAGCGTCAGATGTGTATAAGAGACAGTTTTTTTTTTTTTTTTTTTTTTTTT…TC; conditions: aptamer strand: ATP DNA aptamer (quencher-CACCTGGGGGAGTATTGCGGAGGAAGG + anchor), 100 nM annealed; ATP concentration: 500 uM;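 note: ATP exposure 15 min at 22 °C before imaging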
Measure: switch fluorescence ratio

1) GGTACGGGGA
1.03
2) TACTTATATG
1.03
3) CCACTAATGG
1.03

* * *

test system: ATP; assay: switch fluorescence ratio, 500 uM ATP over buffer (Cy3 cluster intensity, sum of 5 cycles each) (fold (ratio)); higher = stronger signal-on switching upon ATP binding; sequences stand for … in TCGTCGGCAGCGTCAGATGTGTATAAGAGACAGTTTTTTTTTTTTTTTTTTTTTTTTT…TC; conditions: aptamer strand: ATP DNA aptamer (quencher-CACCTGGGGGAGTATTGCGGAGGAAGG + anchor), 100 nM annealed; ATP concentration: 500 uM;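 note: ATP exposure 15 min at 22 °C before imaging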
Measured switch fluorescence ratio accompanies every entry in the list below.
Measure: switch fluorescence ratio

1. GCTTAAATCT
1.01
2. GAGGCTCATT
0.964
3. TGGAAGGGGC
1.04
4. ATGCTAGTTG
0.989

* * *

Measured switch fluorescence ratio accompanies every entry in the list below.
test system: ATP; experiment: switch fluorescence ratio, 500 uM ATP over buffer (Cy3 cluster intensity, sum of 5 cycles each) (fold (ratio)); higher = stronger signal-on switching upon ATP binding; sequences stand for … in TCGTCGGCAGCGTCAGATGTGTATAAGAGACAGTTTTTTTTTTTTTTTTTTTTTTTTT…TC; settings: aptamer strand: ATP DNA aptamer (quencher-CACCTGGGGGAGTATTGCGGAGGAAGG + anchor), 100 nM annealed; ATP concentration: 500 uM;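 note: ATP exposure 15 min at 22 °C before imaging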
Measure: switch fluorescence ratio

1) TTTAAGGAGG
1.03
2) TTGTATTCGG
1
3) TGTGTGTTAG
0.985
4) GGGTCCGGCC
0.992
5) ACTGGTATTA
1.02
6) CTAATCAAAT
0.973
7) TCAATTTTTT
0.993
8) GGCGGTGGCG
0.994
9) TCAGAGGGGG
0.992
10) TAAATTGGTA
1.04
11) AATGGGGGAC
1
12) GGGCGCGGGA
0.991
13) AGTTTCTTAT
0.995
14) TAATAATCTA
1.01
15) ACGATAATCG
0.996
16) GGGTTTTGGG
0.979
17) GGTCGTGCGG
1
18) ATGGTATCAG
1.01
19) TCGCGGAGTT
1
20) CCGGTTGTGG
1.01
21) AAACAGGGAT
1
22) CCAGCACTTT
1.01
23) TTTGAAAGCT
1.16
24) GCTTTGAATT
0.985
25) TTTAGATGGA
0.975
26) TTTCAATGTC
0.97
27) GTTGTATACT
0.993
28) GTATAAAACT
0.999
29) GATGGGTCGT
1
30) TGGCCCCTAT
0.962
31) AGGCTGGCTC
0.98
32) GGTACGGCAA
1.09
33) ATCTGTGAGG
1.02
34) CGGTATAAGT
0.995
35) TAGGTAGTTG
0.952
36) AAAGGTGGCA
1
37) AGTTTGTCCC
1.02
38) AGCAGTGCGG
1.03
39) GCAATTGGGT
1.08
40) ACTCAGCTGG
1.07
41) GGGGGTCCCG
1
42) TATAACGTCC
1.11
43) CGGGGCGAAG
0.984
44) GGGGTTCGCG
1
45) CAAAGCATCA
1.05
46) GTTGTGCTGA
1.02
47) TGGTTATTGT
0.974
48) AAGATAGGGG
1
49) CGCTTCTGGG
0.98
50) TAAAAATACA
1.1
51) TTTCCACCGA
1.14
52) AAGGTACCGG
1.01
53) CAGTTTAAGT
0.993
54) GACGTAAGTT
1.02
55) TGTTTTCCCC
1.02
56) GCAGAATGCA
0.986
57) AGATTCGGGA
0.967

Sourced from the supplement of paper PMC10126150
